Provenance of the data: patent US12714735B2

- experiment summary: MTT cytotoxicity assay
- Format: cell-based
- condition context: human
metric: cytotoxicity at 72 h, 25 µM (%)

INSERT INTO measurements (smiles_repr, unit_symbol, value) VALUES
  ('COc1cccc2c1C(=O)c1c(O)c3c(c(O)c1C2=O)C[C@@](O)(C(=O)CO)C[C@@H]3O[C@H]1C[C@H](N)[C@H](O)[C@H](C)O1', '%', 66.2);

###

- experiment summary: MTT cytotoxicity assay
- Type: cell-based
- condition context: human
- Experimental: Human Lung carcinoma epithelial cell line, A549 cell line was obtained from the National Centre for Cell Sciences (NCCS, Pune). […] The experiments were repeated three times and average OD (absorbance values) were taken and plotted […] Statistical analysis MTT Data were analyzed by using Microsoft office Excel Software.
metric: IC50 at 72 h

INSERT INTO assay_data (compound, value) VALUES
  ('COc1cccc2c1C(=O)c1c(O)c3c(c(O)c1C2=O)C[C@@](O)(C(=O)CO)C[C@@H]3O[C@H]1C[C@H](N)[C@H](O)[C@H](C)O1 [Doxorubicin]', '9.39 µM');

###

- experiment summary: MTT cytotoxicity assay
- Assay type: cell-based
- condition context: human
metric: cytotoxicity at 72 h, 50 µM (%)

INSERT INTO assay_data (smiles_repr, unit_symbol, value) VALUES
  ('COc1cccc2c1C(=O)c1c(O)c3c(c(O)c1C2=O)C[C@@](O)(C(=O)CO)C[C@@H]3O[C@H]1C[C@H](N)[C@H](O)[C@H](C)O1', '%', 69.2);

###

- experiment summary: MTT cytotoxicity assay
- Type: cell-based
- condition context: human
metric: cytotoxicity at 72 h, 0.1 µM (%)

INSERT INTO measurements (smiles_repr, metric, unit_symbol, value) VALUES
  ('COc1cccc2c1C(=O)c1c(O)c3c(c(O)c1C2=O)C[C@@](O)(C(=O)CO)C[C@@H]3O[C@H]1C[C@H](N)[C@H](O)[C@H](C)O1', 'cytotoxicity at 72 h, 0.1 µM', '%', 11.7);
